Tested on: UACC-257 melanoma
ASSAY_EXPLANATION: NCI-60 one-dose screen, 48 h (100 = growth as untreated, 0 = no growth, -100 = all killed)
RUN_CONDITIONS: 10 µM unless noted
The panel holds about 83,000 compounds, 20% with a hit somewhere; the sample as a whole holds those more often.
METRIC: growth (%)

MOLECULE: Cc1ccc(-c2nc(N3CCN(C(=O)c4ccc(OC(F)(F)F)cc4)CC3)c3ccccc3n2)cc1
UNIT_SYMBOL: %
RECORDED_NUMBER: 99.3

MOLECULE: Cc1ccc(C(=O)N/N=C/c2cccc([N+](=O)[O-])c2)cn1
UNIT_SYMBOL: %
RECORDED_NUMBER: 95.6

MOLECULE: CC/C=C\C[C@@H](O)C/C=C1/C(=O)C=C[C@H]1C/C=C\CCCC(=O)OC
UNIT_SYMBOL: %
RECORDED_NUMBER: 56.5

MOLECULE: Cc1cc(C)c(-c2c(N)cc(Br)cc2Br)c(N)c1
UNIT_SYMBOL: %
RECORDED_NUMBER: 66.8

MOLECULE: COc1cc(C2CC(c3ccc(SC)cc3)=NN2C(C)=O)cc(OC)c1OC (stereo not given)
UNIT_SYMBOL: %
RECORDED_NUMBER: 79.4

###

System: EKVX NSCLC
ASSAY_EXPLANATION: NCI-60 one-dose screen, 48 h
RUN_CONDITIONS: 10 µM unless noted
This is part of a sample that, as a whole, favours compounds with a hit. Of some 83,000 tested, about 20% had one in any assay. The source made the active and inactive calls. How the source made its calls: active means growth percent below 10; inactive means the rest.
Outcome codes: active, inactive

COMPOUND: CC1=NN(c2ccc(S(=O)(=O)O)cc2)C(=O)C1N=Nc1ccc(-c2ccc(N=Nc3ccc(OS(=O)(=O)c4ccc(C)cc4)cc3)c(S(=O)(=O)O)c2)cc1 (stereo not drawn)
CLASS: inactive
--
COMPOUND: COc1cc(C(=O)c2cc(C)c3[nH]c4ccc(C)cc4c3c2C)cc(OC)c1OC
CLASS: inactive
--
COMPOUND: CCCCn1c(-c2ccc(C(=O)O/N=C(\N)c3ccc(OC)cc3)cc2)nc(-c2ccccc2)c1-c1ccccc1
CLASS: active

###

Below, each of the compounds is paired with its reported growth value.
System: MDA-MB-435 melanoma
ASSAY_EXPLANATION: NCI-60 one-dose screen, 48 h (100 = growth as untreated, 0 = no growth, -100 = all killed)
RUN_CONDITIONS: 10 µM unless noted
The panel holds about 83,000 compounds, 20% with a hit somewhere; the sample as a whole holds those more often.
METRIC: growth (%)

COMPOUND: CC(=O)OC[C@H]1OC(Sc2sc(C(=O)c3ccc(Br)cc3)c(N)c2-c2nc3ccccc3s2)[C@H](OC(C)=O)[C@@H](OC(C)=O)[C@H]1OC(C)=O (some centres undefined)
RECORDED_NUMBER: 91.7
//
COMPOUND: CC1(C)C2CC1C1(/C=N\Nc3ccccc3)C(C2)C(C#N)(C#N)C1(C#N)C#N (centres undefined)
RECORDED_NUMBER: 104
//
COMPOUND: COC(=O)/C=C1\S/C(=N\Nc2ccc([N+](=O)[O-])cc2[N+](=O)[O-])N(C2CCCCC2)C1=O
RECORDED_NUMBER: 79
//
COMPOUND: N#C/C(=C\c1cccc2cnccc12)n1nnc2cccc(F)c21
RECORDED_NUMBER: 29
//
COMPOUND: CCCCCCCCCCCCCCCCCCOc1ccccc1CCCOP(=O)(O)OCC[N+](C)(C)C
RECORDED_NUMBER: 91.6
//
COMPOUND: O=c1ccc(N=Nc2ccc([N+](=O)[O-])cc2)ccc1O
RECORDED_NUMBER: 21.8
//
COMPOUND: COc1ccc(C2C(N)=NNC2c2cccc(O)c2)cc1 (centres undefined)
RECORDED_NUMBER: 100
//
COMPOUND: CC1=NN(c2ccc(S(=O)(=O)O)cc2)C(=O)C1N=Nc1ccc(-c2ccc(N=Nc3ccc(OS(=O)(=O)c4ccc(C)cc4)cc3)c(S(=O)(=O)O)c2)cc1 (centres undefined)
RECORDED_NUMBER: 95.1
//
COMPOUND: CCCCOc1nc2c(C)cccc2cc1-c1cc(-c2ccc(Cl)cc2)nc(-c2ccc(Cl)cc2)c1
RECORDED_NUMBER: 102
//
COMPOUND: O=c1c2cc(F)ccc2sc2c(NCCCNCCO)nc3ccccc3c12
RECORDED_NUMBER: -82.5
//
COMPOUND: CS(=O)(=O)N(c1cc(-c2ccc3ncnc(Nc4ccc(F)c(Cl)c4)c3c2)cnc1Cl)S(C)(=O)=O
RECORDED_NUMBER: 43.8
//
COMPOUND: CNC(=O)c1cc(-n2ccc3cc(NC(=O)c4ccc(N5CCOCC5)c(C(F)(F)F)c4)ccc32)ccn1
RECORDED_NUMBER: 76.4
//
COMPOUND: CNc1nc2c(s1)C(c1cc(F)ccc1F)CC(=O)N2 (centres undefined)
RECORDED_NUMBER: -51.6
//
COMPOUND: O=C(O)CCC/C=C\C[C@H]1C=CC(=O)/C1=C/C[C@@H](O)CCc1cccc(C(F)(F)F)c1
RECORDED_NUMBER: -53.5
//
COMPOUND: CC(=O)Oc1ccccc1C(=O)N=C1[Se]CCCN1C(=O)c1ccccc1OC(C)=O
RECORDED_NUMBER: -18.9
//
COMPOUND: Clc1ccc(C(/C=C/c2sc(Cl)nc2Cl)=N/Nc2cc(Cl)cc(Cl)c2)cc1
RECORDED_NUMBER: 101
//
COMPOUND: O=C(CS(=O)c1oc(-c2cccs2)nc1S(=O)(=O)c1ccc(Br)cc1)c1ccccc1 (centres undefined)
RECORDED_NUMBER: 95
//
COMPOUND: Cc1nc(/N=C(\N)NC(=O)Nc2ccccc2Cl)sc1C
RECORDED_NUMBER: -25.6
//
COMPOUND: O=C(Nc1c2ccccc2nc2ccccc12)c1ccccc1CN1C(=O)c2ccccc2C1=O
RECORDED_NUMBER: 30.3
//
COMPOUND: Brc1ccc2[nH]cc(-c3nc(-c4c[nH]c5ccncc45)cs3)c2c1
RECORDED_NUMBER: -90.8
//
COMPOUND: Oc1ccc(-c2nc3ccc4[nH]ncc4c3c3c2CCCC3)c2cccnc12
RECORDED_NUMBER: -7.42
//
COMPOUND: CCCCCCNC(=O)Oc1ccc(/C(=C(\C)c2ccc(Cl)cc2)c2ccc(OCCCN(C)C)cc2)cc1
RECORDED_NUMBER: 72.4
//
COMPOUND: O=c1ccc(N=Nc2ccccc2)ccc1Cl
RECORDED_NUMBER: 40.6
//
COMPOUND: Cc1c(C(=O)/C=C/Nc2c(Cl)cc(S(N)(=O)=O)cc2Cl)sc2nc3ccccc3n12
RECORDED_NUMBER: 103
//
COMPOUND: OC(COc1ccccc1)CN1CCN(c2ccc(Cl)cc2)CC1 (centres undefined)
RECORDED_NUMBER: 121
//
COMPOUND: COc1cc(C(=O)c2cc(C)c3[nH]c4ccc(C)cc4c3c2C)cc(OC)c1OC
RECORDED_NUMBER: 17.5
//
COMPOUND: Cc1ccc(-c2nc3c(c(-c4ccccc4)nn3-c3ccccc3)c(-c3ccc(O)cc3)c2C#N)cc1
RECORDED_NUMBER: 64.5
//
COMPOUND: Nc1nc(Cl)cc(=O)n1Cc1ccccc1
RECORDED_NUMBER: 92.6
//
COMPOUND: CCc1ccc(Oc2c(-c3ccc(OCCc4cccc(C(F)(F)F)c4)cc3O)n[nH]c2C(F)(F)F)cc1
RECORDED_NUMBER: 27.1
//
COMPOUND: CCOC(=O)c1cn2ncnc(Oc3ccc(NC(=O)NCCN(CC)CC)c(Cl)c3)c2c1C
RECORDED_NUMBER: 9.11
//
COMPOUND: CCCCCCCCCCCCCCCCCC1OCC(COC(=O)O[C@]2(CC)C(=O)OCc3c2cc2n(c3=O)Cc3cc4ccccc4nc3-2)O1 (some centres undefined)
RECORDED_NUMBER: 92.6
//
COMPOUND: O=C(CSc1nc2ccccc2[nH]1)Nc1cccc(Cl)c1
RECORDED_NUMBER: 102
//
COMPOUND: COc1cccc(Cc2nn3cc(-c4ccccc4)nc3s2)c1
RECORDED_NUMBER: 79.2
//
COMPOUND: COc1cc(C(=O)c2cnc(-c3cccc4[nH]ccc34)[nH]2)cc(OC)c1OC
RECORDED_NUMBER: -34.8
//
COMPOUND: COc1cccc2c(=O)c3c(sc12)c(NCCCN)nc1ccccc13
RECORDED_NUMBER: 33.9
//
COMPOUND: O=C(Cc1ccc2c(c1)OCCO2)Nc1nc2ccc(F)cc2s1
RECORDED_NUMBER: 104
//
COMPOUND: C#C[C@]1(O)CC[C@H]2[C@@H]3CC=C4c5sc(Nc6ccccc6)nc5CC[C@]4(C)[C@H]3CC[C@@]21C
RECORDED_NUMBER: 34.4
//
COMPOUND: Cc1ccc(C(=O)N/N=C/c2cccc(Oc3ccccc3)c2)cn1
RECORDED_NUMBER: -48
//
COMPOUND: COc1ccc(-c2nc(NN)c3c(C)nn(-c4ccc(F)cc4)c3n2)cc1
RECORDED_NUMBER: 0.816
